Test system: BMP-7 induced and basal alkaline phosphatase activity in ROS cells (rat Osteosarcoma 17/2.8)
experimental_protocol: ROS cell based alkaline phosphatase assay
test_conditions: peptide together with BMP-7 (1.33 nM), ROS cells, 2 days; read-out: peptide concentration giving 50% inhibition of cellular responsiveness to BMP-7
Bridges are numbered along the chain shown (N, C = ends). Where no end group is shown, it is not given here.
Listing of entries alongside the reported IC50.
Numeric only. Scale: µM

1. CELYVSFRDLGWQDWIIAPEGYAAYC, SEQ I.D NO. 3; BMP-7 finger 1 peptide with cyclized ends (disulfide 1-26 (inferred); listed as Homo sapiens) [Peptide F1-1] ... 20

Consider the substance shown here: CCFINPETVCC, SEQ I.D NO. 6; cyclized (disulfide (positions not given here); also: cyclized (mode not given here); listed as Homo sapiens) [Peptide H-2C] What is its recorded IC50?
5

Consider the substance shown here: CLNAISVLYFDDSSNVILKKYRNMVVRC, SEQ ID NO. 10; cyclized (disulfide 1-28 (inferred); listed as Homo sapiens) [Peptide F2-1] What is its recorded IC50?
8

Consider the substance shown here: CFRDLGWQDWIIAPC, SEQ I.D NO. 4; 15 residue peptide cyclized at the ends (disulfide 1-15 (inferred); listed as Homo sapiens) [Peptide F1-2] What is its recorded IC50?
10
